System: CCRIS mutagenicity, Ames/micronucleus/aberration tests
test.details: CCRIS mutagenicity studies
recorded.conditions: End Point: IN VITRO MICRONUCLEUS; Test System: MOUSE LYMPHOMA L5178Y CELLS; Metabolic Activation: RAT, LIVER, S-9
The source made the active and inactive calls. How the calls were made is not given here.
Outcomes: Y = active, N = inactive

compound=CCCOS(C)(=O)=O label_value=N
compound=COS(=O)(=O)c1ccc(C)cc1 label_value=Y
compound="CCC(C)OS(C)(=O)=O (centres undefined)" label_value=Y
compound=CC(C)OS(C)(=O)=O label_value=Y

###

Tested on: CCRIS mutagenicity, Ames/micronucleus/aberration tests
test.details: CCRIS mutagenicity studies
recorded.conditions: Test System: AMES SALMONELLA TYPHIMURIUM; Strain/Indicator: TA100; Metabolic Activation: HAMSTER, LIVER, S-9, AROCLOR 1254 (10%); Method: PREINCUBATION
The source made the active and inactive calls. No rule for the calls is given here.
Outcome codes: active, inactive

compound=C=CC(=C)C label_value=inactive
compound="CCCCC(CC)COCCC#N (stereo not given)" label_value=inactive
compound="CCCCC(CC)COS(=O)(=O)O (stereo not given)" label_value=inactive
compound=CC(=O)Nc1ccc(O)cc1 label_value=inactive
compound=CCN(CC)c1ccc(N)cc1 label_value=active
compound="COCC1CO1 (stereo not given)" label_value=active
compound=C=CCN(CC=C)CC=C label_value=inactive
compound=OCCO label_value=inactive
compound=CC(=O)Nc1cccc(N)c1 label_value=active
compound=CCCCN(CCO)CCCC label_value=inactive

###

System: CCRIS mutagenicity, Ames/micronucleus/aberration tests
test.details: CCRIS mutagenicity studies
recorded.conditions: Test System: AMES SALMONELLA TYPHIMURIUM; Strain/Indicator: TA1535; Metabolic Activation: HAMSTER, LIVER, S-9, AROCLOR 1254; Method: STANDARD PLATE
Activity calls are given as the source filed them. The rule behind the calls is not given here.
Classes used: active, inactive

compound=COc1cc([C@@H]2c3cc4c(cc3[C@H](O)[C@H]3COC(=O)[C@H]23)OCO4)cc(OC)c1OC label_value=inactive
compound=COc1ccc2nc(N)sc2c1 label_value=active
compound=CC(=O)Oc1ccccc1C(=O)O label_value=inactive
compound=O=C(/C=C/c1ccc(O)c(O)c1)O[C@@H]1C[C@](O)(C(=O)O)C[C@@H](O)[C@H]1O label_value=inactive
compound=CC=O label_value=inactive
compound=[O]=[Zr] label_value=inactive
compound=CC(=O)O[C@@H]1[C@@H](O)[C@H](O[C@H]2[C@H](OC(=O)[C@H]3CC[C@@H]4[C@H](C3)O[C@@]3(C[C@H](OC(=O)/C=C/c5ccccc5)[C@H](C)CO3)[C@]43CO3)O[C@H](C)[C@@H](O)[C@@H]2OC(C)=O)O[C@H](C)[C@H]1O label_value=inactive
compound=CC(C)CON=O label_value=active
compound=N#CCCNCCC#N label_value=inactive
compound=Nc1nc(Cl)cc(Cl)n1 label_value=inactive
compound=CC(=O)Nc1ccc(O)cc1 label_value=inactive
compound=CCO[Si](OCC)(OCC)OCC label_value=inactive
compound=Nc1ccc(S(=O)(=O)Nc2nccs2)cc1 label_value=inactive
compound=O=C(O)CN(CC(=O)O)CC(=O)O label_value=inactive
compound=O=C(C(=O)c1ccccc1)c1ccccc1 label_value=inactive
compound=Cl/C=C/C[N+]12CN3CN(CN(C3)C1)C2 label_value=inactive
compound=N=C1C=CC(=C(c2ccc(N)cc2)c2ccc(N)cc2)C=C1 label_value=inactive
compound=O.O.O.O=C([O-])[C@H]([O-])[C@@H]([O-])C(=O)[O-].O=C([O-])[C@H]([O-])[C@@H]([O-])C(=O)[O-].[K+].[K+].[Sb+3].[Sb+3] label_value=inactive
compound=C[C@@H]1CC[C@@]2(OC1)O[C@H]1C[C@H]3[C@@H]4CC=C5C[C@@H](O)CC[C@]5(C)[C@H]4CC[C@]3(C)[C@H]1[C@@H]2C label_value=inactive
compound=C=C(Cl)CCl label_value=active
compound=c1ccc2cnncc2c1 label_value=inactive
compound=O=C([O-])c1ccccn1.O=C([O-])c1ccccn1.O=C([O-])c1ccccn1.[Cr+3] label_value=inactive
compound=CC[C@H](C)[C@@H]([C@@H](CC(=O)N1CCC[C@H]1[C@H](OC)[C@@H](C)C(=O)N[C@@H](Cc1ccccc1)c1nccs1)OC)N(C)C(=O)[C@@H](NC(=O)[C@H](C(C)C)N(C)C)C(C)C label_value=inactive
compound=O=c1[nH]cnc2[nH]ncc12 label_value=inactive
compound=O=c1c(O)c(O)c1=O label_value=inactive
compound="CCCCC(CC)COP(=O)(OCC(CC)CCCC)OCC(CC)CCCC (centres undefined)" label_value=inactive
compound=Nc1ccc(S(=O)(=O)Nc2cnc3c(Cl)cccc3n2)cc1 label_value=inactive
compound=CC(=O)CC(=O)CCC(=O)O label_value=inactive
compound=N#CCCN label_value=inactive
compound=COC(=O)c1ccc(CN(C)N=O)cc1 label_value=inactive
compound=Cc1nc2ccccc2s1 label_value=inactive
compound=C=C1CC[C@H]2C[C@@H]1C2(C)C label_value=inactive
compound=CC/C(C)=N\O label_value=inactive
compound=CCc1ccco1 label_value=inactive

###

Tested on: CCRIS mutagenicity, Ames/micronucleus/aberration tests
test.details: CCRIS mutagenicity studies
recorded.conditions: Test System: AMES SALMONELLA TYPHIMURIUM; Strain/Indicator: TA98; Metabolic Activation: NONE; Method: GAS EXPOSURE
Active and inactive are the calls of the source. How the calls were made is not given here.
measured.quantity: mutagenic call

compound_smiles=CC=O system_name="CCRIS mutagenicity, Ames/micronucleus/aberration tests" measured_quantity="mutagenic call" value_measured="inactive; negative"
compound_smiles=CBr system_name="CCRIS mutagenicity, Ames/micronucleus/aberration tests" measured_quantity="mutagenic call" value_measured="inactive; negative"
compound_smiles=FC(F)(Cl)Cl system_name="CCRIS mutagenicity, Ames/micronucleus/aberration tests" measured_quantity="mutagenic call" value_measured="inactive; negative"
compound_smiles=C1COCCO1 system_name="CCRIS mutagenicity, Ames/micronucleus/aberration tests" measured_quantity="mutagenic call" value_measured="inactive; negative"

###

System: CCRIS mutagenicity, Ames/micronucleus/aberration tests
test.details: CCRIS mutagenicity studies
recorded.conditions: Test System: AMES SALMONELLA TYPHIMURIUM; Strain/Indicator: TA98; Metabolic Activation: RAT, LIVER, S-9, PCB; Method: SUSPENSION
Text: The CCRIS database contains chemical records with carcinogenicity, mutagenicity, tumor promotion, and tumor inhibition test results. It was developed by the National Cancer Institute (NCI). Data are derived from studies cited in primary journals, current awareness tools, NCI reports, and other sources. Test results have been reviewed by experts in carcinogenesis and mutagenesis. CCRIS provides historical information from the years 1985 - 2011. It is no longer updated. […]
Calls of active or inactive are those of the source. No rule for the calls is given here.
Classes used: active, inactive

compound_smiles=O=[N+]([O-])c1ccc2c(c1)oc1ccccc12 label_value=active
compound_smiles=O=[N+]([O-])c1ccc2c(c1)Oc1ccc([N+](=O)[O-])cc1O2 label_value=active
compound_smiles=O=[N+]([O-])c1cccc2oc3ccccc3c12 label_value=inactive
compound_smiles=O=[N+]([O-])c1ccc2c(c1)Oc1ccccc1O2 label_value=active
compound_smiles=c1ccc2c(c1)Oc1ccccc1O2 label_value=inactive

###

Tested on: CCRIS mutagenicity, Ames/micronucleus/aberration tests
test.details: CCRIS mutagenicity studies
recorded.conditions: Test System: AMES SALMONELLA TYPHIMURIUM; Strain/Indicator: TA100; Metabolic Activation: RAT, LIVER, S-9, PCB; Method: PREINCUBATION
Active and inactive are the calls of the source. How the calls were made is not given here.
Labels: active, inactive

compound=COC(=O)[C@@H](C)Cl label_value=active
compound=COc1cc(-c2cc(OC)cc(C(C)(C)C)c2O)c(O)c(C(C)(C)C)c1 label_value=inactive
compound=COc1nncc2cnccc12 label_value=inactive
compound=C[C@H](CN=[N+]=[N-])c1ccccc1 label_value=active
compound=COCc1c(O)cc2c(c1O)C(=O)c1ccccc1C2=O label_value=active
compound=ONc1ccccc1 label_value=active
compound=Cc1ccc2c(c1)C(=O)c1ccccc1C2=O label_value=inactive
compound=Clc1nncc2ncccc12 label_value=inactive
compound=Nc1cccc(N)n1 label_value=inactive
compound=NNc1nncc2cccnc12 label_value=active
compound=COc1nncc2cccnc12 label_value=inactive
compound=COc1cc2c(c(OC)c1CO)C(=O)c1ccccc1C2=O label_value=inactive
compound=CC(=O)Oc1ccccc1C(=O)O label_value=inactive
compound=Nc1ccc(Oc2cccc(Oc3ccc(N)cc3)c2)cc1 label_value=active
compound="CC(N)CCN (stereo not given)" label_value=inactive

###

System: CCRIS mutagenicity, Ames/micronucleus/aberration tests
test.details: CCRIS mutagenicity studies
recorded.conditions: Test System: AMES SALMONELLA TYPHIMURIUM; Strain/Indicator: TA100; Metabolic Activation: RAT, LIVER, S-9, AROCLOR 1254; Method: DESICCATOR
Active and inactive are the calls of the source. How the calls were made is not given here.
Classes used: yes (1) for active, no (0) for inactive

compound_smiles=FC(C(F)(F)F)C(F)(F)F system_name="CCRIS mutagenicity, Ames/micronucleus/aberration tests" label_value="no (0)"
compound_smiles=CC(C)Cl system_name="CCRIS mutagenicity, Ames/micronucleus/aberration tests" label_value="yes (1)"
compound_smiles=CC(C)CON=O system_name="CCRIS mutagenicity, Ames/micronucleus/aberration tests" label_value="yes (1)"
compound_smiles=C=CCCl system_name="CCRIS mutagenicity, Ames/micronucleus/aberration tests" label_value="yes (1)"
compound_smiles=CC(C)(Cl)OC(C)(C)Cl system_name="CCRIS mutagenicity, Ames/micronucleus/aberration tests" label_value="yes (1)"
